Source: patent US20250250357A1

- Subject of test: T1, human MSLN-R1-his protein (human, UniProt Q13421 296-390)
- T1 construct: Region 1 of human MSLN, His-tagged; also called human MSLN-R1 protein; hMSLN-R1-his; not shown: His tag
- T1 chain: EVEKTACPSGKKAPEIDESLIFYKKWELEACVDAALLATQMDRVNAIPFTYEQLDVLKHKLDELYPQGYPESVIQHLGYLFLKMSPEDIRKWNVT
- Protocol text: ELISA, coated MSLN-R1;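 note: serially diluted chimeric antibodies bound to the coated, BSA-blocked plate for 2 h at 37 °C, with TMB colour read after acid stop and a negative control antibody alongside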
Measure: OD450 at none (no antibody) (OD450)
Report only the number, with the unit OD450 understood.

OD450 at none (no antibody) reading for S009-F2.47.1 (antibody, human IgG1, kappa, V domains shown, Human-murine chimeric antibody, human IgG1/kappa constant regions) VH: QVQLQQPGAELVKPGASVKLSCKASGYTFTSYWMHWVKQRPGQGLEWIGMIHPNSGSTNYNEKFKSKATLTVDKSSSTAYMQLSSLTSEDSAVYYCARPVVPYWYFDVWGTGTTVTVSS VL: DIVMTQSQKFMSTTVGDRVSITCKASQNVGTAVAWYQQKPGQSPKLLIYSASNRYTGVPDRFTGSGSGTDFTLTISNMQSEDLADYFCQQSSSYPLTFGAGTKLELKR : 0.06

Note to self: OD450 at none (no antibody) recorded for S009-F2.16.10 (antibody, human IgG1, kappa, V domains shown, Human-murine chimeric antibody, human IgG1/kappa constant regions) VH: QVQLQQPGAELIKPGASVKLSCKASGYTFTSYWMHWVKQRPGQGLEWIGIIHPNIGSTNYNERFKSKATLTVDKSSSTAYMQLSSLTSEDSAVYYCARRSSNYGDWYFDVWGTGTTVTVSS VL: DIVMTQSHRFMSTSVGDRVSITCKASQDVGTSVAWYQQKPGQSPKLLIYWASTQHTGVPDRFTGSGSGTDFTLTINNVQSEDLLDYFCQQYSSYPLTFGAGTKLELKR was 0.06

Value of measured OD450 at none (no antibody) for the entry S009-F2.58.8 (antibody, human IgG1, kappa, V domains shown, Human-murine chimeric antibody, human IgG1/kappa constant regions) VH: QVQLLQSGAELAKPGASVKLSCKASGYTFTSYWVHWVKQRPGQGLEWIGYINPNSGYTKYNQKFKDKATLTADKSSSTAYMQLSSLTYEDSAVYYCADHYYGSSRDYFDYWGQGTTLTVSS VL: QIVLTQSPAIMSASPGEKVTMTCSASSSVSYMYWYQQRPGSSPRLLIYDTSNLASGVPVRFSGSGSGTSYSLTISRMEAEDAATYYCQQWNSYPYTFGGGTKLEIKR : 0.06
